Reference source: patent US4978761A

- STUDY SYSTEM: 5-Lipoxygenase (Rattus norvegicus, UniProt P12527)
- Construct: endogenous in cells; host or cells: RBL-1 (rat basophilic leukemia) cells
- Sequence (P12527 whole entry): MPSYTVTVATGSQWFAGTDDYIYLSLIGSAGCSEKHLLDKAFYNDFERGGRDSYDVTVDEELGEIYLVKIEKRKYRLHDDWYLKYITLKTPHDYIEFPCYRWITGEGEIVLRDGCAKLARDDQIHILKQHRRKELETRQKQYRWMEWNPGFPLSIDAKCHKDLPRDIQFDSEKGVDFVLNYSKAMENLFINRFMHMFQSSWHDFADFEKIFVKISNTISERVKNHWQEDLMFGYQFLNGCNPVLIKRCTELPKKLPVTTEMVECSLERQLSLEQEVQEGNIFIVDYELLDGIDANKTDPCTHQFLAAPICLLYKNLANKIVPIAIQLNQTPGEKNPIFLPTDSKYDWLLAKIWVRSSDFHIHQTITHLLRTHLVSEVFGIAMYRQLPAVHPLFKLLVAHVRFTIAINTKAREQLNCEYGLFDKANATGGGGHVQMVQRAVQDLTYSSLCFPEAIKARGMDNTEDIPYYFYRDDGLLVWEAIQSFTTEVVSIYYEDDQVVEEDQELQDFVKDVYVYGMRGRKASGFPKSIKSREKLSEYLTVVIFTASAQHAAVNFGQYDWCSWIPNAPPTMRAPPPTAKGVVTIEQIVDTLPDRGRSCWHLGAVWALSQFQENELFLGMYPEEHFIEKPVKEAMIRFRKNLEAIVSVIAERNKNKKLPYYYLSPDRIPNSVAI
- ASSAY EXPLANATION: 5-Lipoxygenase inhibiting action: 5-HETE production in rat basophilic leukemia (RBL-1) cells (HPLC)
- Format: cell-based
- CONDITION LABEL: 10^-7 M, read-out: Effect of Inhibiting 5-Lipoxygenase, % Inhibition (IE)
VALUE TYPE: inhibition at 0.1 µM (%)

Example cases with answers are listed next.
MOLECULE | UNIT SYMBOL | inhibition at 0.1 µM
Cc1c(C)c2c(c(C)c1O)CC(C)(C=Cc1ccccc1)O2 (stereo not shown) [Compound 10] | % | 98
Cc1c(C)c2c(c(C)c1O)CC(C)(CC#N)O2 (stereo not shown) [Compound 5] | % | 57

a. Cc1c(C)c2c(c(C)c1O)CC(C)(CBr)O2 (stereo not shown) [Compound 6]
b. Cc1c(C)c2c(c(C)c1O)CC(C)(CCc1ccccc1)O2 (stereo not shown) [Compound 12]
Data request: Could you tell me which of a and b has the lower inhibition at 0.1 µM reading? Pick one; state its label.
Data returned: a

---

- STUDY SYSTEM: 12-Lipoxygenase (Rattus norvegicus)
- Construct: from tissue; host or cells: Wistar rat platelets (PRP mixed with PPP, from citrated aortic blood)
- ASSAY EXPLANATION: 12-Lipoxygenase inhibitory action: 12-HETE production in Wistar rat platelets (HPLC)
- Assay type: cell-based
- CONDITION LABEL: 10^-5 M, read-out: 12-Lipoxygenase Inhibitory Action, % Inhibition (IE)
VALUE TYPE: inhibition at 10 µM (%)

MOLECULE | STUDY SYSTEM | UNIT SYMBOL | READING
COc1cccc(/C=C\C2(C)Cc3c(C)c(O)c(C)c(C)c3O2)c1 (stereo not shown) | 12-Lipoxygenase (Rattus norvegicus) | % | 100
Cc1c(C)c2c(c(C)c1O)CC(C)(CCCCc1ccccc1)O2 (stereo not shown) | 12-Lipoxygenase (Rattus norvegicus) | % | 100
Cc1c(C)c2c(c(C)c1O)CC(C)(/C=C\Cc1ccccc1)O2 (stereo not shown) | 12-Lipoxygenase (Rattus norvegicus) | % | 100
Cc1c(C)c2c(c(C)c1O)CC(C)(CCc1ccccc1)O2 (stereo not shown) | 12-Lipoxygenase (Rattus norvegicus) | % | 82
Cc1c(C)c2c(c(C)c1O)CC(C)(C=Cc1ccccc1)O2 (stereo not shown) | 12-Lipoxygenase (Rattus norvegicus) | % | 92
Cc1c(C)c2c(c(C)c1O)CC(C)(CCCc1ccccc1)O2 (stereo not shown) | 12-Lipoxygenase (Rattus norvegicus) | % | 99
Cc1c(C)c2c(c(C)c1O)CC(C)(CCc1ccc(F)cc1)O2 (stereo not shown) | 12-Lipoxygenase (Rattus norvegicus) | % | 99
CCCCCCCCCCCCCC1(C)Cc2c(C)c(O)c(C)c(C)c2O1 (stereo not shown) | 12-Lipoxygenase (Rattus norvegicus) | % | 74
Cc1ccc(/C=C\C2(C)Cc3c(C)c(O)c(C)c(C)c3O2)cc1 (stereo not shown) | 12-Lipoxygenase (Rattus norvegicus) | % | 100
CCCCCCCCCC1(C)Cc2c(C)c(O)c(C)c(C)c2O1 (stereo not shown) | 12-Lipoxygenase (Rattus norvegicus) | % | 100

---

- STUDY SYSTEM: 12-Lipoxygenase (Rattus norvegicus, UniProt F1LQ70)
- Construct: from tissue; host or cells: Wistar rat platelets (PRP mixed with PPP, from citrated aortic blood)
- Sequence (F1LQ70 1-663): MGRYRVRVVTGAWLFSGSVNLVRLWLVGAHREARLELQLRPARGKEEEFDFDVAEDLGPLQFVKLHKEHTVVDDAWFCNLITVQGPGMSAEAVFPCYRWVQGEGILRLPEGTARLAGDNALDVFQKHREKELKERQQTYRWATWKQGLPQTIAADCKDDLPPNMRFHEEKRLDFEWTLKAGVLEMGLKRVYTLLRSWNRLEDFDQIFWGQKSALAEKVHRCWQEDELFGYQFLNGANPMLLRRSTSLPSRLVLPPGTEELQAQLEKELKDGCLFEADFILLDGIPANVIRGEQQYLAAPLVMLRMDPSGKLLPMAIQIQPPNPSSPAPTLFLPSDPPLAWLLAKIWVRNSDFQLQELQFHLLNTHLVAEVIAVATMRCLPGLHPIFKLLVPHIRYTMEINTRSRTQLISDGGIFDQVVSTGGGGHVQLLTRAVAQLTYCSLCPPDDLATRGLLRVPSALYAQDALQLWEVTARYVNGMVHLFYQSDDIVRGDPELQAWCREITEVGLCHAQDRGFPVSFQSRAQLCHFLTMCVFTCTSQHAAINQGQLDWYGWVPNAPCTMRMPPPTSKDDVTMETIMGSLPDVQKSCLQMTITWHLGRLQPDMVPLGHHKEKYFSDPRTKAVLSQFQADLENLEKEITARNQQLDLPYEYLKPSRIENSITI
- ASSAY EXPLANATION: 12-Lipoxygenase inhibitory action: 12-HETE production in Wistar rat platelets (HPLC)
- Type: cell-based
- CONDITION LABEL: 10^-5 M, read-out: 12-Lipoxygenase Inhibitory Action, % Inhibition (IE)
VALUE TYPE: inhibition at 10 µM (%)

COMPOUND | UNIT SYMBOL | inhibition at 10 µM
CCCCCCCCCCC/C=C\C1(C)Cc2c(C)c(O)c(C)c(C)c2O1 (centres unmarked) | % | 96
Cc1c(C)c2c(c(C)c1O)CC(C)(/C=C/c1ccccc1)O2 (centres unmarked) | % | 100
COc1cccc(CCC2(C)Cc3c(C)c(O)c(C)c(C)c3O2)c1 (centres unmarked) | % | 99
Cc1c(C)c2c(c(C)c1O)CC(C)(CBr)O2 (centres unmarked) | % | 88
Cc1ccc(CCC2(C)Cc3c(C)c(O)c(C)c(C)c3O2)cc1 (centres unmarked) | % | 99
